Reference source for all entries: patent US20190241669A1

target_under_test: Human BCMA (human) (UniProt Q02223)
experiment_description: SPR, IgG immobilised, huBCMA analyte, 25 C
The binders listed here are annotated with their koff.
Report the figure in s⁻¹ without appending any unit label.

The examples below pair each entry with its known result.
{"columns": ["binder", "recorded_metric", "units", "readout_number"],
 "data": [
  ["L1.LGF/L3.KW/H3.AP (antibody, V domains shown) VH: EVQLLESGGGLVQPGGSLRLSCAASGFTFGSYAMTWVRQAPGKGLEWVSAISGSGGNTFYADSVKGRFTISRDNSKNTLYLQMNSLRAEDTAVYYCARVSPIAAPMDYWGQGTLVTVSS VL: EIVLTQSPGTLSLSPGERATLSCRASQSLGSFYLAWYQQKPGQAPRLLIYGASSRATGIPDRFSGSGSGTDFTLTISRLEPEDFAVYYCKHYGWPPSFTFGQGTKVEIK", "koff", "s⁻¹", 0.00227],
  ["L1.LGF/L3.PY/H3.AP (antibody, V domains shown) VH: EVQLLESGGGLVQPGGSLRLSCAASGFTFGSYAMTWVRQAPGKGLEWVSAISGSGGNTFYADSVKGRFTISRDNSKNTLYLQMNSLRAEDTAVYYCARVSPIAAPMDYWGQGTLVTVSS VL: EIVLTQSPGTLSLSPGERATLSCRASQSLGSFYLAWYQQKPGQAPRLLIYGASSRATGIPDRFSGSGSGTDFTLTISRLEPEDFAVYYCQHYPYPPSFTFGQGTKVEIK", "koff", "s⁻¹", 0.000969],
  ["L1.LGF/L3.NY/H3.AP (antibody, V domains shown) VH: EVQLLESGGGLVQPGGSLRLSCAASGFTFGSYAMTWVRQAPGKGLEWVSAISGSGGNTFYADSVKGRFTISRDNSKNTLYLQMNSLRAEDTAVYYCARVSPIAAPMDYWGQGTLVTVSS VL: EIVLTQSPGTLSLSPGERATLSCRASQSLGSFYLAWYQQKPGQAPRLLIYGASSRATGIPDRFSGSGSGTDFTLTISRLEPEDFAVYYCQHYNYPPSFTFGQGTKVEIK", "koff", "s⁻¹", 0.000533]
]}

Input: I would be grateful if you could share the reported koff for L1.GDF/L3.KW/H3.AP (antibody, V domains shown) VH: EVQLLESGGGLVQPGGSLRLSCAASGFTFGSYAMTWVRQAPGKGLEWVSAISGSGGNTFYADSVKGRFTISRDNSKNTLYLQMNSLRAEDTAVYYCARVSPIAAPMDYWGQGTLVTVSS VL: EIVLTQSPGTLSLSPGERATLSCRASQSVGDFYLAWYQQKPGQAPRLLIYGASSRATGIPDRFSGSGSGTDFTLTISRLEPEDFAVYYCKHYGWPPSFTFGQGTKVEIK .
Output: 0.00461
